// data source = paper PMC9290029

test: Pharmacokinetic assessments in rats; format: in vivo, Sprague Dawley rats; details: male, Sprague-Dawley, rat, plasma, po, 23 mg/kg
Endpoint: AUC

* CN1Cc2c(Cl)cc(Cl)cc2C(c2ccc(S(=O)(=O)NCCOCCOCCNC(=O)c3ccc(C(=O)NCCOCCOCCNS(=O)(=O)c4ccc(C5CN(C)Cc6c(Cl)cc(Cl)cc65)cc4)cc3)cc2)C1 (stereo not shown) | < 8 ng·h/mL

---

assay: Pharmacokinetic assessments in rats; assay type: in vivo, Sprague Dawley rats; settings: male, Sprague-Dawley, rat, plasma, po, 22 mg/kg
Endpoint: AUC

* CN1Cc2c(Cl)cc(Cl)cc2C(c2cccc(S(=O)(=O)NCCOCCOCCNC(=O)c3ccc(C(=O)NCCOCCOCCNS(=O)(=O)c4cccc(C5CN(C)Cc6c(Cl)cc(Cl)cc65)c4)cc3)c2)C1 (stereo not shown) | < 8 ng·h/mL

---

test: Pharmacokinetic assessments in rats; type: in vivo, Sprague Dawley rats; conditions: male, Sprague-Dawley, rat, plasma, po, 28 mg/kg
Endpoint: AUC

- CN1Cc2c(Cl)cc(Cl)cc2C(c2cccc(S(=O)(=O)NCCOCCOCCOCCNC(=O)CCC(=O)NCCOCCOCCOCCNS(=O)(=O)c3cccc(C4CN(C)Cc5c(Cl)cc(Cl)cc54)c3)c2)C1 (stereo not shown): < 8 ng·h/mL

---

assay: Pharmacokinetic assessments in rats; type: in vivo, Sprague Dawley rats; conditions: male, Sprague-Dawley, rat, plasma, po, 17 mg/kg
Endpoint: AUC

• CN1Cc2c(Cl)cc(Cl)cc2C(c2ccc(S(=O)(=O)NCCOCCOCCNC(=O)NCCOCCOCCNS(=O)(=O)c3ccc(C4CN(C)Cc5c(Cl)cc(Cl)cc54)cc3)cc2)C1 (stereo not shown) = < 8 ng·h/mL

---

assay: Pharmacokinetic assessments in rats; format: in vivo, Sprague Dawley rats; settings: male, Sprague-Dawley, rat, plasma, po, 1.8 mg/kg
Endpoint: AUC

• CN1Cc2c(Cl)cc(Cl)cc2C(c2cccc(S(=O)(=O)NCCOCCOCCOCCNC(=O)NCCOCCOCCOCCNS(=O)(=O)c3cccc(C4CN(C)Cc5c(Cl)cc(Cl)cc54)c3)c2)C1 (stereo not shown) = < 75 ng·h/mL

---

assay: Pharmacokinetic assessments in rats; type: in vivo, Sprague Dawley rats; settings: male, Sprague-Dawley, rat, plasma, po, 5.3 mg/kg
Endpoint: AUC

* CN1Cc2c(Cl)cc(Cl)cc2C(c2ccc(S(=O)(=O)NCCOCCOCCOCCNC(=O)NCCOCCOCCOCCNS(=O)(=O)c3ccc(C4CN(C)Cc5c(Cl)cc(Cl)cc54)cc3)cc2)C1 (stereo not shown) | < 19 ng·h/mL

---

experiment: Pharmacokinetic assessments in rats; type: in vivo, Sprague Dawley rats; conditions: male, Sprague-Dawley, rat, plasma, po, 11 mg/kg
Endpoint: AUC

* CN1Cc2c(Cl)cc(Cl)cc2C(c2cccc(S(=O)(=O)NCCOCCOCCNC(=O)NCCOCCOCCNS(=O)(=O)c3cccc(C4CN(C)Cc5c(Cl)cc(Cl)cc54)c3)c2)C1 (stereo not shown) [Compound 22] | < 19 ng·h/mL
